// provenance: the supplement of paper PMC9112550

- Test system: Escherichia coli TOP10
- experiment summary: shrunken log2 fold change of peptide-encoding DNA abundance (4.5 h post-induction vs induction); higher = less antimicrobial activity (less host growth inhibition)
- measurement context: time post-induction: 4.5 h; library: site-saturation at positions 5, 18, 19, 20
Each entry below lists one item and its recorded shrunken log2 fold change value.

polymer sequence | shrunken log2 fold change
RRIRMRPPRLPRPRPRPNQQPRP | 0.0339
RRIRKRPPRLPRPRPRPWDHPRP | -0.0434
RRIRNRPPRLPRPRPRPCWYPRP | -0.0865
RRIRCRPPRLPRPRPRPTDPPRP | 0.102
RRIRARPPRLPRPRPRPARAPRP | 0.834
RRIRCRPPRLPRPRPRPPLWPRP | 0.32
RRIRERPPRLPRPRPRPLGDPRP | -0.0627
RRIRDRPPRLPRPRPRPFEFPRP | 0.0215
RRIRTRPPRLPRPRPRPGLAPRP | 0.308
RRIRHRPPRLPRPRPRPRGKPRP | -0.241
RRIRIRPPRLPRPRPRPVWMPRP | 0.11
RRIRTRPPRLPRPRPRPSPHPRP | -0.159
RRIRGRPPRLPRPRPRPFEYPRP | 0.0664

###

- Tested on: Escherichia coli TOP10
- experiment summary: shrunken log2 fold change of peptide-encoding DNA abundance (4.5 h post-induction vs induction); higher = less antimicrobial activity (less host growth inhibition)
- measurement context: time post-induction: 4.5 h; library: site-saturation at positions 5, 18, 19, 20
readout: shrunken log2 fold change

polymer sequence | reported
RRIRVRPPRLPRPRPRPSLIPRP | -0.238
RRIRCRPPRLPRPRPRPYKEPRP | 0.0662
RRIRCRPPRLPRPRPRPFFCPRP | -0.132
RRIRERPPRLPRPRPRPPPGPRP | 0.418
RRIRDRPPRLPRPRPRPNYPPRP | 0.0151
RRIRLRPPRLPRPRPRPNICPRP | -0.132
RRIRGRPPRLPRPRPRPGDLPRP | 2.41
RRIRERPPRLPRPRPRPQFSPRP | -0.0998
RRIRPRPPRLPRPRPRPMAFPRP | 0.0207
RRIRERPPRLPRPRPRPNSVPRP | 0.0407
RRIRGRPPRLPRPRPRPELLPRP | 0.334
RRIRNRPPRLPRPRPRPRICPRP | 0.101
RRIRWRPPRLPRPRPRPSIDPRP | 0.452
RRIRNRPPRLPRPRPRPWSVPRP | -0.328
RRIRERPPRLPRPRPRPSEWPRP | -0.0737
RRIRWRPPRLPRPRPRPRVNPRP | 0.478
RRIRCRPPRLPRPRPRPKEFPRP | 0.0238
RRIRSRPPRLPRPRPRPNFFPRP | 0.179

###

- Test system: Escherichia coli TOP10;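 also: peptides expressed intracellularly from a pBAD plasmid library in pooled LB shake-flask culture, induced with 0.3% L-arabinose, DNA abundance read by NGS, three biological replicates, DESeq2 with apeglm shrinkage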
- experiment summary: shrunken log2 fold change of peptide-encoding DNA abundance (4.5 h post-induction vs induction); higher = less antimicrobial activity (less host growth inhibition)
- measurement context: time post-induction: 4.5 h; library: site-saturation at positions 5, 18, 19, 20
Each entry below lists one item and its recorded shrunken log2 fold change value.
readout: shrunken log2 fold change

polymer sequence | target system | reported
RRIRCRPPRLPRPRPRPWTRPRP | Escherichia coli TOP10 | 0.0156
RRIRTRPPRLPRPRPRPMSSPRP | Escherichia coli TOP10 | -0.00458
RRIRVRPPRLPRPRPRPDSAPRP | Escherichia coli TOP10 | 0.0792
RRIRDRPPRLPRPRPRPVCVPRP | Escherichia coli TOP10 | 0.514
RRIRRRPPRLPRPRPRPPIMPRP | Escherichia coli TOP10 | -0.0528
RRIRQRPPRLPRPRPRPQFMPRP | Escherichia coli TOP10 | -0.302
RRIRARPPRLPRPRPRPNTKPRP | Escherichia coli TOP10 | -0.124
RRIRIRPPRLPRPRPRPDFTPRP | Escherichia coli TOP10 | -0.355
RRIRERPPRLPRPRPRPQWRPRP | Escherichia coli TOP10 | -0.0529
RRIRHRPPRLPRPRPRPEHWPRP | Escherichia coli TOP10 | 0.237
RRIRMRPPRLPRPRPRPVDSPRP | Escherichia coli TOP10 | 0.216
RRIRSRPPRLPRPRPRPCGPPRP | Escherichia coli TOP10 | 0.118
RRIRQRPPRLPRPRPRPRVYPRP | Escherichia coli TOP10 | 0.0498
RRIRSRPPRLPRPRPRPSSHPRP | Escherichia coli TOP10 | -0.0982
RRIRTRPPRLPRPRPRPWLEPRP | Escherichia coli TOP10 | 0.218
RRIRRRPPRLPRPRPRPMKSPRP | Escherichia coli TOP10 | 0.304
RRIRARPPRLPRPRPRPWIDPRP | Escherichia coli TOP10 | -0.0113
RRIRVRPPRLPRPRPRPAPGPRP | Escherichia coli TOP10 | 0.472
RRIRLRPPRLPRPRPRPFHSPRP | Escherichia coli TOP10 | -0.177
RRIRNRPPRLPRPRPRPCRAPRP | Escherichia coli TOP10 | -0.0439
RRIRFRPPRLPRPRPRPPTEPRP | Escherichia coli TOP10 | 0.438
RRIRHRPPRLPRPRPRPDAEPRP | Escherichia coli TOP10 | 0.205
RRIRERPPRLPRPRPRPMAAPRP | Escherichia coli TOP10 | 0.421
RRIRNRPPRLPRPRPRPLVAPRP | Escherichia coli TOP10 | -0.124
RRIRWRPPRLPRPRPRPMRFPRP | Escherichia coli TOP10 | 0.00175
RRIRHRPPRLPRPRPRPHGAPRP | Escherichia coli TOP10 | -0.183
RRIRPRPPRLPRPRPRPSSNPRP | Escherichia coli TOP10 | -0.388
RRIRDRPPRLPRPRPRPVKQPRP | Escherichia coli TOP10 | -0.0215
RRIRMRPPRLPRPRPRPMCVPRP | Escherichia coli TOP10 | 1.45
RRIRFRPPRLPRPRPRPKWLPRP | Escherichia coli TOP10 | 0.251
RRIRVRPPRLPRPRPRPKCSPRP | Escherichia coli TOP10 | -0.065
RRIRWRPPRLPRPRPRPVRFPRP | Escherichia coli TOP10 | 0.0694
RRIRWRPPRLPRPRPRPFQWPRP | Escherichia coli TOP10 | 0.236
RRIRNRPPRLPRPRPRPCYHPRP | Escherichia coli TOP10 | -0.0967
RRIRPRPPRLPRPRPRPTPLPRP | Escherichia coli TOP10 | 0.453
RRIRFRPPRLPRPRPRPLANPRP | Escherichia coli TOP10 | 0.0332
RRIRFRPPRLPRPRPRPVAVPRP | Escherichia coli TOP10 | 0.105
RRIRFRPPRLPRPRPRPHFWPRP | Escherichia coli TOP10 | -0.124
RRIRSRPPRLPRPRPRPCCFPRP | Escherichia coli TOP10 | -0.0695
RRIRWRPPRLPRPRPRPDEHPRP | Escherichia coli TOP10 | 0.0519
